Measurement Target: T1, engrailed homeodomain (enHD) (UniProt P02836 456-509)
T1 sequence: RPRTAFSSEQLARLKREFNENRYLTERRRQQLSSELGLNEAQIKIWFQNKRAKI
Assay Name: NMR titration (1H-15N HSQC, A460 and A507); 300 mM NaCl, 20 mM acetate pH 4, 298 K; NMR: 200 uM enHD, 298 K, 5% D2O; 20 mM MES pH 6 + 25 mM NaCl; 20 mM acetate pH 4 + 300 or 700 mM NaCl; 25 mM phosphate pH 6.8 + 50 mM NaCl. CD: 15 uM enHD and DNA, 20 mM MES pH 6, 25 mM NaCl, room temperature
Experimental Parameters: protein: recombinant; tags: none (untagged, or SUMO/His tag cleaved by ULP1); 15N or 13C,15N labelled for NMR; 5' overhang 1 nt on each strand, 20 bp
Measurement Label: Kd
Field note: include the unit after the figure.

Sure, the documented Kd for cognate DNA (same as X-ray structure) (dsDNA) DNA 1: TTTTGCCATGTAATTACCTAA DNA 2: ATTAGGTAATTACATGGCAAA is 95 µM
